Procedure Summary: RP, Waters SunFire C18, 50 × 4.6 mm, 3.5 µm, 0.5 mL/min, estimated dead time 1.1 min; A: water + 0.1% formic acid; B: acetonitrile + 0.1% formic acid; gradient (min/%B) 0/5 7/100 8/100
Condition Details: stereoisomer not certain
Listing of recorded LC retention time by entry.
Report only the number, with the unit min understood.

CCCc1cc(OC)cc(O)c1C(=O)Oc1c(O)cc(CCC)c(C(=O)OC)c1O = 7.11
CC1CCCCCCCCCCC(O)C(O)C(O)C=CC(=O)O1 (centres undefined) = 5.65
COc1cc(O)c2c(c1)C(=O)c1cc(CO)cc(O)c1C2=O = 5.36
COc1cc(O)cc(C)c1C(=O)Oc1cc(C)c(C(=O)Oc2cc(C)c(C(=O)O)c(O)c2)c(O)c1 = 6.17
COC12CC(=O)C(C(C)=O)=C(O)C1(C)c1c(O)c(C(C)=O)c(O)c(C)c1O2 (centres undefined) = 6.88
Cc1cc(O)c2c(oc3cc(O)c4c(c32)COC4=O)c1C(=O)O = 3.95
Cc1cc(OC(=O)c2c(C)cc(O)c(O)c2O)cc(O)c1C(=O)O = 4.69
COc1cc(O)c2c(c1)C(=O)c1c(O)c(C)cc(O)c1C2=O = 4.75
COc1cc(C)c2c(=O)c3c(O)cc(OC)cc3oc2c1 = 6.94
CC(=O)OCC1OC(Oc2cc3oc(C)cc(=O)c3c(O)c2C)C(OC(C)=O)C(O)C1O (centres undefined) = 4.69

Give the measured LC retention time for CCCCCC(=O)Cc1cc(OC)cc(O)c1C(=O)Oc1cc(CCCCC)c(C(=O)O)c(OC)c1
7.1

Identify the reported LC retention time for the following entry. COc1cc(C)c(C(=O)Oc2cc(C)c(C(=O)O)c(O)c2C)c(O)c1C=O
6.35

Please report LC retention time for the following compound: COC(=O)c1c(OC)cc2oc3c(C(=O)O)c(C)cc(OC)c3c2c1C
5.63

Provide only the value of recorded LC retention time for Cc1cc(O)c(C)c2c1C(=O)Oc1c(C)c(O)c(C(=O)O)c(C)c1O2
5.63

Provide one value: measured LC retention time of CC(C)CC(NC(=O)C(=C1OC(=O)C(c2ccccc2)=C1O)c1ccccc1)C(=O)O (centres undefined)
7.26

Using the record for COc1cc(C)c2c(c1C=O)Oc1c(c(CO)c(O)c3c1C(O)OC3=O)OC2=O (centres undefined) , state its measured LC retention time.
4.06

Please supply the value of reported LC retention time for the item O=C1c2cc(O)cc(O)c2C(=O)c2c(O)cc(CO)cc21
4.9

Please list LC retention time recorded for the compound COC(=O)C(=C1OC(=O)C(c2ccccc2)=C1O)c1ccccc1OC
6.75

Supply reported LC retention time belonging to this compound: Cc1cc(O)c(C=O)c2c1C(=O)Oc1c(CO)c(O)c(C(=O)O)c(C)c1O2
5.62
